The measurements presented in this section are drawn from ChEMBL document CHEMBL1152718.

- experimental.details: Bioavailability in dog
- Type: ADME, organism-based, Canis lupus familiaris
- settings: in vivo
endpoint.label: bioavailability (%)
State the answer as a number, implicitly in %.

Entry CC(C)(C)NC(=O)N[C@H](C(=O)N1C[C@H]2[C@@H]([C@H]1C(=O)NC(CC1CCC1)C(=O)C(N)=O)C2(C)C)C(C)(C)C (stereo partly specified) [BOCEPREVIR] ; bioavailability = 34

---

- experimental.details: Inhibition of HCV isolate BK NS4A-tethered single chain NS3 serine protease
- Set-up: species or system Hepatitis C virus (isolate BK)
pKi: −log10 of the molar value.
Output 1 for pKi not less than 8; output -1 otherwise.

C=CCNC(=O)C(=O)C(CCC)NC(=O)[C@@H]1[C@@H]2[C@H](CN1C(=O)[C@@H](NC(=O)N[C@H](CN1Cc3ccccc3S1(=O)=O)C(C)(C)C)C1(C)CCCCC1)C2(C)C (stereo not given in full) :: 1
C=CCNC(=O)C(=O)C(CCC)NC(=O)[C@@H]1[C@@H]2[C@H](CN1C(=O)[C@@H](NC(=O)N[C@H](CN1CCCNS1(=O)=O)C(C)(C)C)C(C)(C)C)C2(C)C (stereo not given in full) :: -1

As a next step, examine the compound that follows.
// inclusive: pKi at least 8? input: C=CCNC(=O)C(=O)C(CCC)NC(=O)[C@@H]1[C@@H]2[C@H](CN1C(=O)[C@@H](NC(=O)N[C@H](CN1Cc3ccccc3S1(=O)=O)C(C)(C)C)C(C)(C)C)C2(C)C (stereo not given in full)
1

---

- experimental.details: Inhibition of HCV isolate BK NS4A-tethered single chain NS3 serine protease
- Set-up: species or system Hepatitis C virus (isolate BK)
endpoint.label: Ki (nM)
State the answer as a number, implicitly in nM.

Worked examples, 8 compounds total:
CC(C)(C)NC(=O)N[C@H](C(=O)N1C[C@H]2[C@@H]([C@H]1C(=O)NC(CC1CCC1)C(=O)C(N)=O)C2(C)C)C(C)(C)C (some centres undefined) :: 14
C#CCCC(NC(=O)[C@@H]1[C@@H]2[C@H](CN1C(=O)[C@@H](NC(=O)N[C@H](CN1Cc3ccccc3S1(=O)=O)C(C)(C)C)C(C)(C)C)C2(C)C)C(=O)C(=O)NCC=C (some centres undefined) :: 0.9
C=CCNC(=O)C(=O)C(CCC)NC(=O)[C@@H]1[C@@H]2[C@H](CN1C(=O)[C@@H](NC(=O)N[C@H](CN1C(=O)c3ccccc3S1(=O)=O)C(C)(C)C)C(C)(C)C)C2(C)C (some centres undefined) :: 15
C=CCNC(=O)C(=O)C(CCC)NC(=O)[C@@H]1[C@@H]2[C@H](CN1C(=O)[C@@H](NC(=O)N[C@H](CN1Cc3ccccc3S1(=O)=O)C1CCCCC1)C(C)(C)C)C2(C)C (some centres undefined) :: 18
C=CCNC(=O)C(=O)C(CCC)NC(=O)[C@@H]1[C@@H]2[C@H](CN1C(=O)[C@@H](NC(=O)N[C@H](CN1CCCN(C)S1(=O)=O)C(C)(C)C)C(C)(C)C)C2(C)C (some centres undefined) :: 14
C=CCNC(=O)C(=O)C(CCC)NC(=O)[C@@H]1[C@@H]2[C@H](CN1C(=O)[C@@H](NC(=O)N[C@H](CN1Cc3sccc3S1(=O)=O)C(C)(C)C)C1(C)CCCCC1)C2(C)C (some centres undefined) :: 3
C=CCNC(=O)C(=O)C(CCC)NC(=O)[C@@H]1[C@@H]2[C@H](CN1C(=O)[C@@H](NC(=O)NC1(CN3Cc4sccc4S3(=O)=O)CCCCC1)C(C)(C)C)C2(C)C (some centres undefined) :: 41
C=CCNC(=O)C(=O)C(CCC)NC(=O)[C@@H]1[C@@H]2[C@H](CN1C(=O)[C@@H](NC(=O)N[C@H](CN1CCCCS1(=O)=O)C(C)(C)C)C(C)(C)C)C2(C)C (some centres undefined) :: 6

Entry C=CCNC(=O)C(=O)C(CCCC)NC(=O)[C@@H]1[C@@H]2[C@H](CN1C(=O)[C@@H](NC(=O)N[C@H](CN1Cc3ccccc3S1(=O)=O)C(C)(C)C)C(C)(C)C)C2(C)C (some centres undefined) ; Ki = 5

Entry C=CCNC(=O)C(=O)C(CCC)NC(=O)[C@@H]1[C@@H]2[C@H](CN1C(=O)[C@@H](NC(=O)N[C@H](CN1Cc3sccc3S1(=O)=O)C(C)(C)C)C1CCCCC1)C2(C)C (some centres undefined) ; Ki = 14

Entry C=CCNC(=O)C(=O)C(CC1CCC1)NC(=O)[C@@H]1[C@@H]2[C@H](CN1C(=O)[C@@H](NC(=O)N[C@H](CN1Cc3ccccc3S1(=O)=O)C(C)(C)C)C(C)(C)C)C2(C)C (some centres undefined) ; Ki = 30

Entry C=CCNC(=O)C(=O)C(CCC)NC(=O)[C@@H]1[C@@H]2[C@H](CN1C(=O)[C@@H](NC(=O)N[C@H](CN1Cc3sccc3S1(=O)=O)C(C)(C)C)C(C)(C)C)C2(C)C (some centres undefined) ; Ki = 10

Entry C=CCNC(=O)C(=O)C(CC1CC1)NC(=O)[C@@H]1[C@@H]2[C@H](CN1C(=O)[C@@H](NC(=O)N[C@H](CN1Cc3ccccc3S1(=O)=O)C(C)(C)C)C(C)(C)C)C2(C)C (some centres undefined) ; Ki = 7

Entry C=CCNC(=O)C(=O)C(CCC)NC(=O)[C@@H]1[C@@H]2[C@H](CN1C(=O)[C@@H](NC(=O)N[C@H](CN1CCCCS1(=O)=O)C1CCCCC1)C(C)(C)C)C2(C)C (some centres undefined) ; Ki = 30

---

- experimental.details: Bioavailability in monkey
- Type: ADME, organism-based, Macaca mulatta
- settings: rhesus monkey, in vivo
endpoint.label: bioavailability (%)
State the answer as a number, implicitly in %.

Entry CC(C)(C)NC(=O)N[C@H](C(=O)N1C[C@H]2[C@@H]([C@H]1C(=O)NC(CC1CCC1)C(=O)C(N)=O)C2(C)C)C(C)(C)C (stereo partly specified) ; bioavailability = 4

---

Selectivity ratio listing for selected compounds.
- experimental.details: Selectivity for HCV isolate BK NS4A-tethered single chain NS3 serine protease over human neutrophil elastase
Answer using only a numeral; do not append any unit.

Worked examples, 2 compounds total:
C=CCNC(=O)C(=O)C(CCC)NC(=O)[C@@H]1[C@@H]2[C@H](CN1C(=O)[C@@H](NC(=O)N[C@H](CN1CCCNS1(=O)=O)C(C)(C)C)C(C)(C)C)C2(C)C (stereo not given in full) :: 80
C=CCNC(=O)C(=O)C(CC1CCC1)NC(=O)[C@@H]1[C@@H]2[C@H](CN1C(=O)[C@@H](NC(=O)N[C@H](CN1Cc3ccccc3S1(=O)=O)C(C)(C)C)C(C)(C)C)C2(C)C (stereo not given in full) :: 1500

Entry C=CCNC(=O)C(=O)C(CCC)NC(=O)[C@@H]1[C@@H]2[C@H](CN1C(=O)[C@@H](NC(=O)N[C@H](CN1Cc3sccc3S1(=O)=O)C(C)(C)C)C1CCCCC1)C2(C)C (stereo not given in full) ; Selectivity ratio = 10

Entry C=CCNC(=O)C(=O)C(CCC)NC(=O)[C@@H]1[C@@H]2[C@H](CN1C(=O)[C@@H](NC(=O)N[C@H](CN1Cc3ccccc3S1(=O)=O)C(C)(C)C)C(C)(C)C)C2(C)C (stereo not given in full) ; Selectivity ratio = 650

Entry C=CCNC(=O)C(=O)C(CCCC)NC(=O)[C@@H]1[C@@H]2[C@H](CN1C(=O)[C@@H](NC(=O)N[C@H](CN1Cc3ccccc3S1(=O)=O)C(C)(C)C)C(C)(C)C)C2(C)C (stereo not given in full) ; Selectivity ratio = 6100

---

- experimental.details: AUC in rat at 3 mg/kg, po
- Type: ADME, organism-based, Plasma
- Design: dose 3 mg/kg, route oral
- settings: plasma
endpoint.label: AUC (µM·h)
State the answer as a number, implicitly in µM·h.

Entry C=CCNC(=O)C(=O)C(CCC)NC(=O)[C@@H]1[C@@H]2[C@H](CN1C(=O)[C@@H](NC(=O)N[C@H](CN1CCCN(C)S1(=O)=O)C(C)(C)C)C(C)(C)C)C2(C)C (stereo not given in full) ; AUC = 0.2

Entry C=CCNC(=O)C(=O)C(CCC)NC(=O)[C@@H]1[C@@H]2[C@H](CN1C(=O)[C@@H](NC(=O)N[C@H](CN1CCCCS1(=O)=O)C1CCCCC1)C(C)(C)C)C2(C)C (stereo not given in full) ; AUC = 0.18

Entry C=CCNC(=O)C(=O)C(CCC)NC(=O)[C@@H]1[C@@H]2[C@H](CN1C(=O)[C@@H](NC(=O)N[C@H](CN1Cc3ccccc3S1(=O)=O)C(C)(C)C)C(C)(C)C)C2(C)C (stereo not given in full) ; AUC = 0.373

Entry C=CCNC(=O)C(=O)C(CCC)NC(=O)[C@@H]1[C@@H]2[C@H](CN1C(=O)[C@@H](NC(=O)N[C@H](CN1CCCCS1(=O)=O)C(C)(C)C)C(C)(C)C)C2(C)C (stereo not given in full) ; AUC = 0.67

Entry C=CCNC(=O)C(=O)C(CCC)NC(=O)[C@@H]1[C@@H]2[C@H](CN1C(=O)[C@@H](NC(=O)N[C@H](CN1Cc3sccc3S1(=O)=O)C(C)(C)C)C(C)(C)C)C2(C)C (stereo not given in full) ; AUC = 0.43
